I'd appreciate it if you could supply Corrected rawintden - min values for the items below.
- System: DR5 ECD
- testName: Peptide array binding of Fc-tagged DR5 ectodomain (MPZ and RHO sequences; amino acid enrichment)
- Design: species or system human
- studyConditions: rhodopsin EL1-EL3 peptide array, min subtracted
Give bare numbers.

Previously resolved entries follow.
chain	testedTarget	measurementType	reported
PEGMQCSCGIDYYTLKPE	DR5 ECD	Corrected rawintden - min	1657676
PWQLHGYFVFGPTGCNLE	DR5 ECD	Corrected rawintden - min	1093768
MNGTEGPNFYVPFSNVTG	DR5 ECD	Corrected rawintden - min	827091

Batch: Corrected rawintden - min for all items listed.
1. MQCSCGIDYYTLKPEVNN
2. SNFMNGTEGPNFYVPFSN
3. YFVFGPTGCNLERYIPEG
4. LAEPWQLHGYFVFGPTGC
5. VNNESTHQGSNFMNGTEG

-- reply
[1701232, 337810, 490636, 890759, 294091]

Please give Corrected rawintden - min, item by item, for the list that follows.
1. QYYLAEPWQLHGYFVFGP
2. YTLKPEVNNESTHQGSNF
3. YVPFSNVTGVVRSPFEQP
4. SCGIDYYTLKPEVNNEST
5. EQPQYYLAEPWQLHGYFV

-- reply
1: 996384; 2: 870062; 3: 640840; 4: 1488599; 5: 507200

// batch mode: one Corrected rawintden - min value per listed entry
1. IDYYTLKPEVNNESTHQG
2. TGCNLERYIPEGMQCSCG
3. VVRSPFEQPQYYLAEPWQ
4. HQGSNFMNGTEGPNFYVP

-- reply
[1420533, 1149984, 375649, 360135]
